Observed GI50 for Nonsmall-cell-lung cancer cell lines, reported per entry below.
Numbers only, in nM.

- molecule: "O=C(CN1CCN(c2ncnc3ccccc23)CC1)Nc1ccc(Cl)cc1C(=O)c1ccccc1Cl [Compound 6d]"
  output_unit: "nM"
  GI50: 389
- molecule: "CC(C)(C)c1cn2cccc(C(=O)N3CCN(CC(=O)Nc4ccc(Cl)cc4C(=O)c4ccccc4Cl)CC3)c2n1 [Compound 6e]"
  output_unit: "nM"
  GI50: 661
- molecule: "O=C(CN1CCN(c2ccccn2)CC1)Nc1ccc(Cl)cc1C(=O)c1ccccc1Cl [Compound 6a]"
  output_unit: "nM"
  GI50: 2510
- molecule: "O=C(c1ccccc1)c1cc(Cl)ccc1OCCCCN1CCN(CCCCOc2ccc(Cl)cc2C(=O)c2ccccc2)CC1 [Compound 8b]"
  output_unit: "nM"
  GI50: 3240

For the next question, use this molecule.
Could you share which GI50 value was measured for O=C(CN1CCN(c2ncccn2)CC1)Nc1ccc(Cl)cc1C(=O)c1ccccc1Cl [Compound 6b] ?
3630
